Reported values: pIC50 for PIK3CD (Human), one per item.
pIC50: −log10 of the molar value.
MEASUREMENT_NAME: pIC50

# COMPOUND, MEASUREMENT_NAME, VAL
measured = [
    ("Cc1cccc2cc([C@H](C)Nc3nc(N)ncc3Cl)n(C3CC3)c(=O)c12", "pIC50", "> 7.00"),
    ("Cc1ccccc1-n1c(Cn2nc(-c3nn[nH]n3)c3c(N)ncnc32)cc2cccc(C)c2c1=O", "pIC50", "> 7.00"),
    ("CCC(Nc1ncnc2[nH]cnc12)c1cc2cccc(C)c2c(=O)n1C1CCC1 (centres undefined)", "pIC50", "> 7.00"),
    ("Cc1ccccc1-n1c(Cn2nc(C(=O)NO)c3c(N)ncnc32)cc2cccc(C)c2c1=O", "pIC50", "6.00 to 7.00"),
    ("CC(=O)Nc1nc2ccc(-c3nn(Cc4cc5cccc(C)c5c(=O)n4-c4ccccc4C)c4ncnc(N)c34)cc2[nH]1", "pIC50", "> 7.00"),
    ("Cc1cccc2cc([C@H](C)Nc3cc(N)nc(Cl)n3)n(C3CC3)c(=O)c12", "pIC50", "< 5.00"),
    ("Cc1cccc2cc(C(C)Nc3ncnc4[nH]cnc34)n(C3CCC3)c(=O)c12 (centres undefined)", "pIC50", "> 7.00"),
    ("Cc1cccc2cc([C@H](C)Nc3ncnc4[nH]ncc34)n(-c3ccccc3)c(=O)c12", "pIC50", "6.00 to 7.00"),
    ("Cc1ccccc1-n1c(Cn2nc(CF)c3c(N)ncnc32)cc2cccc(C)c2c1=O", "pIC50", "> 7.00"),
    ("C[C@H](Nc1ncnc2[nH]cnc12)c1cc2cccc(Cl)c2c(=O)n1C1CC1", "pIC50", "> 7.00"),
    ("Cc1cccc2cc([C@H](C)Nc3cc(N)nc(Cl)n3)n(-c3ccccc3)c(=O)c12", "pIC50", "6.00 to 7.00"),
    ("Cc1ccccc1-n1c(Cn2nc(C(N)=O)c3c(N)ncnc32)cc2cccc(C)c2c1=O", "pIC50", "6.00 to 7.00"),
    ("CC(=O)Nc1nc2cc(-c3nn(Cc4cc5cccc(C)c5c(=O)n4-c4ccccc4C)c4ncnc(N)c34)ccc2s1", "pIC50", "6.00 to 7.00"),
    ("COc1ccc(-c2nn(Cc3cc4cccc(C)c4c(=O)n3-c3ccccc3C)c3ncnc(N)c23)cc1OC", "pIC50", "6.00 to 7.00"),
    ("Cc1cccc2cc([C@H](C)Nc3nc(N)ncc3F)n(-c3ccccc3)c(=O)c12", "pIC50", "> 7.00"),
    ("Cc1cccc2cc([C@H](C)Nc3nc(N)ncc3C(N)=O)n(C3CC3)c(=O)c12", "pIC50", "< 5.00"),
    ("Cc1cccc2cc([C@H](C)Nc3nc(Cl)nc4[nH]cnc34)n(-c3ccccc3)c(=O)c12", "pIC50", "> 7.00"),
    ("Cc1cccc2cc([C@H](C)Nc3ncnc4[nH]cc(Br)c34)n(C3CC3)c(=O)c12", "pIC50", "> 7.00"),
    ("CCC(Nc1ncnc2[nH]cnc12)c1cc2ccccc2c(=O)n1-c1ccccc1 (centres undefined)", "pIC50", "> 7.00"),
]

----------
Reported values: pIC50 for UniProt P42338, one per item.
Sequence (P42338 whole entry, looked up): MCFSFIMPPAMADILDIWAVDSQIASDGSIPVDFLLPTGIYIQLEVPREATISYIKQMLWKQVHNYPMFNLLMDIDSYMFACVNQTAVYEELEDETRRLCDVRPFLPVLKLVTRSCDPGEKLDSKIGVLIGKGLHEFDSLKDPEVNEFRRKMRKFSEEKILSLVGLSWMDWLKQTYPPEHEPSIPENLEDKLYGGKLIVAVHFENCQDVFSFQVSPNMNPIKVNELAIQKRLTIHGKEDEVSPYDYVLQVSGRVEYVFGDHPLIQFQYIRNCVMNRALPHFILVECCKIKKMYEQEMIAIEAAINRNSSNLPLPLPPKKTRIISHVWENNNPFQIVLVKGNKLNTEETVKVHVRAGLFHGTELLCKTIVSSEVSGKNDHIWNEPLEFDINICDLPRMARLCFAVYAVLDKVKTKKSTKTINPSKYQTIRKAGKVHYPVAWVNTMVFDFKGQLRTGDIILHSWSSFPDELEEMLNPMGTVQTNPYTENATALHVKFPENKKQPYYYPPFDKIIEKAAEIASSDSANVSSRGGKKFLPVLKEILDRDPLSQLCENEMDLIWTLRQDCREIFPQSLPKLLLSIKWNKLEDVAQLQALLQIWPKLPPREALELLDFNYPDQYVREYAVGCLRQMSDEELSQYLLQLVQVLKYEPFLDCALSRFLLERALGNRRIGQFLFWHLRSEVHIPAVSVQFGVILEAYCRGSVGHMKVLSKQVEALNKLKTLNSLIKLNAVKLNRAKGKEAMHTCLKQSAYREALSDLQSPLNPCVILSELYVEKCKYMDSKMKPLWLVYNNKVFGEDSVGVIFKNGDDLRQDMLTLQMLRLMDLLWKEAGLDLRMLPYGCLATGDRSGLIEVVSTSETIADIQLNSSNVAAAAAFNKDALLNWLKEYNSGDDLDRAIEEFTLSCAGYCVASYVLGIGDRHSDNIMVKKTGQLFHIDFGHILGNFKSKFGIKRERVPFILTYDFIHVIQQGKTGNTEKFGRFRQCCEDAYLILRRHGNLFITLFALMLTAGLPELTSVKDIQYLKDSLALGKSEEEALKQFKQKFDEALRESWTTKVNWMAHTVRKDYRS
pIC50: −log10 of the molar value.
MEASUREMENT_NAME: pIC50

# COMPOUND, VAL
measured = [
    ("Cc1ccccc1-n1c(Cn2nc(-c3ccc(F)c(O)c3)c3c(N)ncnc32)cc2ccccc2c1=O", "< 5.00"),
    ("Cc1cccc2cc(Cn3nc(I)c4c(N)ncnc43)n(C3CCC3)c(=O)c12", "< 5.00"),
    ("Cc1cccc2cc(Cn3nc(-c4ccc5nc(N)sc5c4)c4c(N)ncnc43)n(-c3ccccc3)c(=O)c12", "6.00 to 7.00"),
    ("CCc1nn(Cc2cc3cccc(C)c3c(=O)n2-c2ccccc2C)c2ncnc(N)c12", "< 5.00"),
    ("Cc1cccc2cc(C(C)Nc3nc(O)ncc3N)n(-c3ccccc3)c(=O)c12 (stereo not given)", "< 5.00"),
    ("Cc1cccc2cc(Cn3nc(-c4cccc(O)c4)c4c(N)ncnc43)n(-c3ccccc3OCCN3CCOCC3)c(=O)c12", "< 5.00"),
    ("Cc1cccc2cc([C@H](C)Nc3nc(N)nc4[nH]cnc34)n(-c3ccccc3)c(=O)c12", "> 7.00"),
    ("Cc1cccc2cc(Cn3nc(-c4ccc(O)c(F)c4)c4c(N)ncnc43)n(-c3ccccc3F)c(=O)c12", "< 5.00"),
    ("Cc1cccc2cc(Cn3nc(-c4cn[nH]c4)c4c(N)ncnc43)n(-c3ccccc3Cl)c(=O)c12", "< 5.00"),
    ("Cc1cccc2cc(Cn3nc(-c4cc(O)cc(F)c4)c4c(N)ncnc43)n(-c3ccccc3O)c(=O)c12", "6.00 to 7.00"),
    ("Cc1cccc2cc(Cn3nc(-c4cc(O)cc(F)c4)c4c(N)ncnc43)n(-c3ccccc3Cl)c(=O)c12", "6.00 to 7.00"),
    ("Cc1ccccc1-n1c(Cn2nc(CCC(N)=O)c3c(N)ncnc32)cc2cccc(C)c2c1=O", "< 5.00"),
    ("COC(=O)c1nn(Cc2cc3cccc(C)c3c(=O)n2-c2ccccc2C)c2ncnc(N)c12", "< 5.00"),
    ("Cc1cccc2cc(Cn3nc(-c4cccc(F)c4)c4c(N)ncnc43)n(-c3ccccc3F)c(=O)c12", "< 5.00"),
    ("Cc1cccc2cc([C@H](C)Nc3ncnc4[nH]cc(C#N)c34)n(C3CC3)c(=O)c12", "> 7.00"),
    ("CC(=O)Nc1nc2ccc(-c3nn(Cc4cc5cccc(C)c5c(=O)n4-c4ccccc4)c4ncnc(N)c34)cc2[nH]1", "< 5.00"),
    ("Cc1ccccc1-n1c(Cn2nc(-c3cnn(C)c3)c3c(N)ncnc32)cc2cccc(C)c2c1=O", "< 5.00"),
    ("Cc1cccc2cc([C@H](C)Nc3cc(N)nc(N)n3)n(-c3ccccc3)c(=O)c12", "< 5.00"),
    ("C=Cc1nn(Cc2cc3cccc(C)c3c(=O)n2-c2ccccc2F)c2ncnc(N)c12", "< 5.00"),
    ("Cc1cccc2cc([C@H](C)Nc3nc(N)ncc3C(N)=O)n(C3CC3)c(=O)c12", "< 5.00"),
    ("Cc1ccccc1-n1c(Cn2nc(-c3ccc(F)cc3)c3c(N)ncnc32)cc2cccc(C)c2c1=O", "< 5.00"),
    ("Cc1cccc2cc([C@H](C)Nc3cc(N)nc(Cl)n3)n(-c3ccccc3)c(=O)c12", "< 5.00"),
    ("Cc1cccc2cc([C@H](C)Nc3ncnc4[nH]c(Cl)nc34)n(C3CC3)c(=O)c12", "< 5.00"),
    ("C[C@H](Nc1ncnc2[nH]cnc12)c1cc2cccc(Cl)c2c(=O)n1C1CC1", "> 7.00"),
    ("COc1cc(F)cc(-c2nn(Cc3cc4cccc(C)c4c(=O)n3-c3ccccc3C)c3ncnc(N)c23)c1", "< 5.00"),
    ("COc1ccccc1-n1c(Cn2nc(C#C[C@@H](C)O)c3c(N)ncnc32)cc2cccc(C)c2c1=O", "< 5.00"),
    ("Cc1ccccc1-n1c(Cn2nc(-c3cnn(CCO)c3)c3c(N)ncnc32)cc2cccc(C)c2c1=O", "< 5.00"),
    ("CC(=O)Nc1nc2cc(-c3nn(Cc4cc5cccc(C)c5c(=O)n4-c4ccccc4C)c4ncnc(N)c34)ccc2o1", "6.00 to 7.00"),
    ("Cc1cccc2cc(Cn3nc(-c4ccc(F)c(O)c4)c4c(N)ncnc43)n(-c3ccccc3F)c(=O)c12", "< 5.00"),
    ("Cc1cccc2cc(Cn3nc(-c4ccc5oc(N)nc5c4)c4c(N)ncnc43)n(C3CC3)c(=O)c12", "6.00 to 7.00"),
    ("Cc1cccc2cc(Cn3nc(-c4cn[nH]c4)c4c(N)ncnc43)n(-c3cccc(F)c3)c(=O)c12", "< 5.00"),
    ("Cc1ccccc1-n1c(Cn2nc(C=CC(=O)N3CCOCC3)c3c(N)ncnc32)cc2cccc(C)c2c1=O", "< 5.00"),
    ("Cc1ccccc1-n1c(Cn2nc(CCC(=O)N3CCOCC3)c3c(N)ncnc32)cc2cccc(C)c2c1=O", "< 5.00"),
    ("Cc1cccc2cc(Cn3nc(-c4cccc(O)c4)c4c(N)ncnc43)n(-c3ccccc3F)c(=O)c12", "< 5.00"),
    ("Cc1cccc2cc(Cn3nc(C#C[C@@H](C)O)c4c(N)ncnc43)n(-c3ccccc3F)c(=O)c12", "< 5.00"),
]

----------
TGT: UniProt:P42336
Sequence (P42336 whole entry, looked up): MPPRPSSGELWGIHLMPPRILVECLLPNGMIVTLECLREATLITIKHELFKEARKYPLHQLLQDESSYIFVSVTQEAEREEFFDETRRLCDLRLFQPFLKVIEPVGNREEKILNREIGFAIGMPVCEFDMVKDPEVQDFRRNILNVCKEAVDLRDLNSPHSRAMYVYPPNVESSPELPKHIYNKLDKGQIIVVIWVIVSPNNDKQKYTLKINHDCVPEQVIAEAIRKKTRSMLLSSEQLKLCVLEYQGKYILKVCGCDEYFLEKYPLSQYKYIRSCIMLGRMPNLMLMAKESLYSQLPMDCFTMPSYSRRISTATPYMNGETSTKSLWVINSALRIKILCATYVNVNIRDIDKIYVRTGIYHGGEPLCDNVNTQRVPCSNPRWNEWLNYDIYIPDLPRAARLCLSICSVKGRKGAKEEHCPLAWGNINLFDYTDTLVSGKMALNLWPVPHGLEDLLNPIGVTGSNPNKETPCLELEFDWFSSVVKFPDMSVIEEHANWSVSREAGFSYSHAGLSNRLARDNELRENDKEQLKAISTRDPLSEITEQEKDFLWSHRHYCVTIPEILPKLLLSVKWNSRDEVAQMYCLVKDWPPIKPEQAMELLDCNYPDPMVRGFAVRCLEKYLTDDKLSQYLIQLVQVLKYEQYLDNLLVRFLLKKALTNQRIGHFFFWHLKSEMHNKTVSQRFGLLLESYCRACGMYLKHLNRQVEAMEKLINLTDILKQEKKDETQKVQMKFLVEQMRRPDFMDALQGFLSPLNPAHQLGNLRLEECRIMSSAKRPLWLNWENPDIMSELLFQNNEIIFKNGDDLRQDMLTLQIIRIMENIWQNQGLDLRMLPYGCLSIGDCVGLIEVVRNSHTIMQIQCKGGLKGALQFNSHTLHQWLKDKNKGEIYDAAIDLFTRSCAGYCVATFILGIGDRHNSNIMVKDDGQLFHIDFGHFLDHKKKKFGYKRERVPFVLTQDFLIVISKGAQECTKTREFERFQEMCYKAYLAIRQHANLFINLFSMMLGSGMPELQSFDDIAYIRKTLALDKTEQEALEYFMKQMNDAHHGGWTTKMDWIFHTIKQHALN
pIC50: −log10 of the molar value.
MEASUREMENT_NAME: pIC50

# MOLECULE, TGT, VAL
measured = [
    ("Cc1cccc2cc([C@H](C)Nc3ncnc4[nH]cc(C#N)c34)n(C3CC3)c(=O)c12", "UniProt:P42336", "6.00 to 7.00"),
    ("Cc1ccccc1-n1c(Cn2nc(C(N)=O)c3c(N)ncnc32)cc2cccc(C)c2c1=O", "UniProt:P42336", "< 5.00"),
    ("Cc1ccccc1-n1c(Cn2nc(-c3ccc4sc(N)nc4c3)c3c(N)ncnc32)cc2cccc(C)c2c1=O", "UniProt:P42336", "6.00 to 7.00"),
    ("Cc1cccc2cc(Cn3nc(I)c4c(N)ncnc43)n(C(C)C)c(=O)c12", "UniProt:P42336", "< 5.00"),
    ("Cc1cccc2cc([C@H](C)Nc3ncnc4[nH]cc(C#N)c34)n(-c3ccccc3)c(=O)c12", "UniProt:P42336", "6.00 to 7.00"),
    ("CCC(Nc1ncnc2[nH]cnc12)c1cc2cccc(C)c2c(=O)n1-c1ccccc1C (stereo not drawn)", "UniProt:P42336", "< 5.00"),
    ("Cc1cccc2cc(Cn3nc(-c4ccn[nH]4)c4c(N)ncnc43)n(-c3ccccc3F)c(=O)c12", "UniProt:P42336", "< 5.00"),
    ("Cc1cccc2cc(Cn3nc(C#C[C@@H](C)O)c4c(N)ncnc43)n(C(C)C)c(=O)c12", "UniProt:P42336", "< 5.00"),
    ("Cc1cccc2cc(Cn3nc(-c4cccc(O)c4)c4c(N)ncnc43)n(-c3ccccc3OCCN3CCOCC3)c(=O)c12", "UniProt:P42336", "< 5.00"),
    ("CNC(=O)c1nn(Cc2cc3cccc(C)c3c(=O)n2-c2ccccc2)c2ncnc(N)c12", "UniProt:P42336", "< 5.00"),
    ("Cc1ccccc1-n1c(Cn2nc(C=CC(=O)N3CCOCC3)c3c(N)ncnc32)cc2cccc(C)c2c1=O", "UniProt:P42336", "< 5.00"),
    ("Cc1ccccc1-n1c(Cn2nc(-c3cnn(C)c3)c3c(N)ncnc32)cc2cccc(C)c2c1=O", "UniProt:P42336", "< 5.00"),
    ("COc1ccc(-c2nn(Cc3cc4cccc(C)c4c(=O)n3-c3ccccc3C)c3ncnc(N)c23)cc1", "UniProt:P42336", "< 5.00"),
    ("Cc1cccc2cc([C@H](C)Nc3cc(N)nc(N)n3)n(C3CC3)c(=O)c12", "UniProt:P42336", "< 5.00"),
    ("Cc1cccc2cc(Cn3nc(-c4cccc(O)c4)c4c(N)ncnc43)n(C3CC3)c(=O)c12", "UniProt:P42336", "6.00 to 7.00"),
    ("Cc1cccc2cc([C@H](C)Nc3ncnc4[nH]cc(F)c34)n(C3CC3)c(=O)c12", "UniProt:P42336", "6.00 to 7.00"),
    ("Cc1cccc2cc(Cn3nc(-c4cn[nH]c4)c4c(N)ncnc43)n(-c3cccc(F)c3)c(=O)c12", "UniProt:P42336", "< 5.00"),
    ("Cc1cccc2cc(Cn3nc(-c4ccc(O)c(Cl)c4)c4c(N)ncnc43)n(-c3ccccc3F)c(=O)c12", "UniProt:P42336", "< 5.00"),
]
